# credit: the supplement of paper PMC9170038

Measured apparent KD of MS2 coat protein values are reported for all entries that follow.
- System: MS2 coat protein
- METHOD: apparent KD of MS2 coat protein, switch ON state; designed switch direction (-1 OFF switch, 1 ON switch): 1; higher = weaker reporter binding
- DETAILS: FMN input: 0 or 200 uM; Eterna round: R93 (includes R88 designs)
Report the figure in nM without appending any unit label.

{"SEQUENCE": "GGGAGGAAGAGAGAGGAUAUCCAAAGGAAAACAUGAGGAUCACCCAUGUAAAAGGUAGGAAAUUGGGAGAAGGCUCAAGAGACGG [salish99-ss2-053]", "UNIT LABEL": "nM", "apparent KD of MS2 coat protein": 26.7}
{"SEQUENCE": "AAAUAACAUGAGGAUCACCCAUGUCAAAUAAAUCGAGGAUAUGGGCCCGAGUUCCGGGAGCCAGAAGGCGAAAAGA [Ceusrete]", "UNIT LABEL": "nM", "apparent KD of MS2 coat protein": 28.9}

Read the next record carefully.
For AGGAAACAUGAGGAUCACCCAUGUAUAAAAAAUACAGGAUAUGGAAACACGAAAGUGAAACCAGAAGGGUAAAAAA [77%, Mat - Mod of Eli, 32] on MS2 coat protein, measured apparent KD of MS2 coat protein was 15.9
